Target: T1, human IL-23R extracellular domain Fc-fusion (human, UniProt Q5VWK5 24-355)
T1 construct: extracellular domain; bought; also called IL-23R-Fc
T1 sequence (looked up): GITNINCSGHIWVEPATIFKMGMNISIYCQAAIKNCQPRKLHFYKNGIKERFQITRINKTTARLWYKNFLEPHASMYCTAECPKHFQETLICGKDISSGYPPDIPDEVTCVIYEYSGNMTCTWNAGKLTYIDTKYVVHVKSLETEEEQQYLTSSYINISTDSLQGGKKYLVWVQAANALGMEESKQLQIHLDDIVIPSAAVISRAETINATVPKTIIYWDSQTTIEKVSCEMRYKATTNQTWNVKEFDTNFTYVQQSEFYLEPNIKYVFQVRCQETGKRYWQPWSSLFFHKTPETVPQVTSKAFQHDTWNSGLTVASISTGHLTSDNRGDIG
Test: competition ELISA, coated IL-23 + IL-23R-Fc
OUTCOME_MEASURE: pIC50
Scale note: pIC50 = -log10(concentration in M).

**Query** Item IL23R#20-35GS-CD4#8 (bispecific antibody, also called BI#43; T023200043) EVQLVESGGGLVQAGGSLRLSCAASGRTFSSYAMGWFRQAPGKDREFVAAISWIGESTYYADSVKGRFTISRDNAKNTVYLRMNSLKPEDTAVYYCAADLYYTAYVAAADEYDYWGQGTLVTVSSGGGGSGGGGSGGGGSGGGGSGGGGSGGGGSGGGGSEVQLVESGGGSVQPGGSLTLSCGTSGRTFNVMGWFRQAPGKEREFVAAVRWSSTGIYYTQYADSVKSRFTISRDNAKNTVYLEMNSLKPEDTAVYYCAADTYNSNPARWDGYDFRGQGTLVTVSS has what recorded pIC50?
**Result** 7.96
